Literature-derived IC50 for Matrix metalloproteinase-9 (Homo sapiens) follows.

Worked cases, answers included:
molecule | propertyMeasured | reportedMeasurement
CC#CCOc1ccc(SC(C(=O)NO)c2ccc(OC)cc2)cc1 (stereo unspecified) | IC50 | > 10 µM
C#CCN1CCC(C(=O)NO)(S(=O)(=O)c2ccc(Oc3ccc(OC(F)(F)F)cc3)cc2)CC1 | IC50 | < 0.0001 µM
CC#CCOc1ccc(S(=O)(=O)C(C(=O)NO)C2CCCCC2)cc1 (stereo unspecified) | IC50 | > 10 µM
O=C(NO)[C@H]1CC(OC(=O)N2CCCC2)CN[C@@H]1C(=O)N1CC[C@H](c2ccccc2)C1 (stereo partly specified) | IC50 | > 5 µM
O=P(O)(O)C(Nc1ccc(-c2ccccc2)cc1)P(=O)(O)O | IC50 | > 100 µM

Note: attention shifts to another entry.
input: Identify measured IC50 obtained with Matrix metalloproteinase-9 (Homo sapiens) for N[C@@H](CCCCNC(=O)c1ccc2c(c1)C(=O)OC21c2ccc(O)cc2Oc2cc(O)ccc21)C(=O)N1CCC(C(=O)NO)(S(=O)(=O)c2ccc(Oc3ccc(OC(F)(F)F)cc3)cc2)CC1 .
Sequence (P14780 whole entry): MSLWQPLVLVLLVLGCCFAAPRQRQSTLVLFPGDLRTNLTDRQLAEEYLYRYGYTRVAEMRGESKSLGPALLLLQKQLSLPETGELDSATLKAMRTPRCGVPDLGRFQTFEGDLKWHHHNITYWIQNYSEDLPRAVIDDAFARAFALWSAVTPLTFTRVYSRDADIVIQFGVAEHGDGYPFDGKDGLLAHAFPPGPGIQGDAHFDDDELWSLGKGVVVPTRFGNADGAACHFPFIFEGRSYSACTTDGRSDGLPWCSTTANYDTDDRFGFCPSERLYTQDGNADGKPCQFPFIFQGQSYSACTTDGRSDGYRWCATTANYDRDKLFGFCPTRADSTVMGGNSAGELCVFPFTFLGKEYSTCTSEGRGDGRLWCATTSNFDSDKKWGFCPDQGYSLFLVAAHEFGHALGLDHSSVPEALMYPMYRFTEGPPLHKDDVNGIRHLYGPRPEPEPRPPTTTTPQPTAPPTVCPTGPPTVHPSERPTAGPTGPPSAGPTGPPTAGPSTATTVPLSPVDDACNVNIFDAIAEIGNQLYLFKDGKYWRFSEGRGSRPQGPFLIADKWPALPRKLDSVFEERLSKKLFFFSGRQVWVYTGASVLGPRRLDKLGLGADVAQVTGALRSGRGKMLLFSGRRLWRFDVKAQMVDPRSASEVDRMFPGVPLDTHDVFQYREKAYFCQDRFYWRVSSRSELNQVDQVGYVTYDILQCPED
output: < 0.001 µM
